B1: library; numbered along this chain (parent)
chain: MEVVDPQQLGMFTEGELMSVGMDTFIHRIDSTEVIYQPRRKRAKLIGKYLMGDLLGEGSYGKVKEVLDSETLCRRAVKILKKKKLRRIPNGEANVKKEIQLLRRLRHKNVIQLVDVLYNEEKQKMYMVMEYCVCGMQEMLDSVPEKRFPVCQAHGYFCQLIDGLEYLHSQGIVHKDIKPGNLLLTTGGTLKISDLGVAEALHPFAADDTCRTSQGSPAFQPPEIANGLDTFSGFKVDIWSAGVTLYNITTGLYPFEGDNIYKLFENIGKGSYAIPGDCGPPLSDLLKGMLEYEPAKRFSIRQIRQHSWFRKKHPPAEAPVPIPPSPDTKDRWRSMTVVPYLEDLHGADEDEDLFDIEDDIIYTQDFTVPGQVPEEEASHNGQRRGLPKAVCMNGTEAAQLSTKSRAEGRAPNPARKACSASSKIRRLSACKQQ

Variants of: B1
Test: STK11 functional score (HeLa growth suppression), rescaled enrichment; synonymous median = 1, nonsense median = 0 (normalised score)
Conditions: with HeLa; variant type: missense
Rule: measured STK11 functional score below 1 gets Y; anything equal to or greater than 1 gets N.

Could you please tell me whether STK11 functional score recorded for V66G is less than 1?
Y

Could you please tell me whether STK11 functional score recorded for N181F is less than 1?
Y

Could you please tell me whether STK11 functional score recorded for K175Y is less than 1?
Y

Could you please tell me whether STK11 functional score recorded for G227S is less than 1?
N

Could you please tell me whether STK11 functional score recorded for S271M is less than 1?
N

Could you please tell me whether STK11 functional score recorded for Q159V is less than 1?
Y

Could you please tell me whether STK11 functional score recorded for Q170L is less than 1?
Y

Could you please tell me whether STK11 functional score recorded for F298D is less than 1?
N

Could you please tell me whether STK11 functional score recorded for Q100H is less than 1?
N

Could you please tell me whether STK11 functional score recorded for D327L is less than 1?
N

Could you please tell me whether STK11 functional score recorded for K84N is less than 1?
Y

Could you please tell me whether STK11 functional score recorded for M136A is less than 1?
Y

Could you please tell me whether STK11 functional score recorded for R409A is less than 1?
N

Could you please tell me whether STK11 functional score recorded for D53A is less than 1?
N

Could you please tell me whether STK11 functional score recorded for D359M is less than 1?
N

Could you please tell me whether STK11 functional score recorded for S142Q is less than 1?
N

Could you please tell me whether STK11 functional score recorded for I274D is less than 1?
Y

Could you please tell me whether STK11 functional score recorded for G394Y is less than 1?
N

Could you please tell me whether STK11 functional score recorded for S419A is less than 1?
N

Could you please tell me whether STK11 functional score recorded for K388W is less than 1?
N

Could you please tell me whether STK11 functional score recorded for T250R is less than 1?
Y

Could you please tell me whether STK11 functional score recorded for D176M is less than 1?
Y

meta.source: the supplement of paper PMC12338614
